Each record here notes measured Pre-emergence efficacy against ALOMY.
System: Alopecurus myosuroides (ALOMY)
experiment-description: C. Herbicidal pre-emergence efficacy, ALOMY
Type: in vivo
condition-details: 320 g/ha, scored after about 3 weeks
Return type: number; implicit unit %.

smiles-data: CCCCS(=O)(=O)Oc1ccccc1Oc1ncc(Cl)cn1
target-or-test-system: Alopecurus myosuroides (ALOMY)
Pre-emergence efficacy against ALOMY / %: 90
//
smiles-data: O=S(=O)(CCCC(F)(F)F)Oc1c(F)cccc1Oc1ncc(F)cn1
target-or-test-system: Alopecurus myosuroides (ALOMY)
Pre-emergence efficacy against ALOMY / %: 100
//
smiles-data: O=S(=O)(CCCC(F)(F)F)Oc1c(F)cccc1Oc1ncc(Br)cn1
target-or-test-system: Alopecurus myosuroides (ALOMY)
Pre-emergence efficacy against ALOMY / %: 100
//
smiles-data: O=S(=O)(CCCC(F)(F)F)Oc1c(Cl)cccc1Oc1ncc(Cl)cn1
target-or-test-system: Alopecurus myosuroides (ALOMY)
Pre-emergence efficacy against ALOMY / %: 100

Which Pre-emergence efficacy against ALOMY is listed for `O=S(=O)(CCC(F)(F)F)Oc1c(F)cccc1Oc1ncc(Br)cn1` ?
100

----------
System: Abutilon theophrasti (ABUTH)
experiment-description: B. Herbicidal post-emergence efficacy, ABUTH
Type: in vivo
condition-details: 1280 g/ha, rated visually after about 3 weeks
outcome-measure: Post-emergence efficacy against ABUTH in % (%)
Return type: number; implicit unit %.

Worked examples follow.
compound: O=S(=O)(CC1CC1(Cl)Cl)Oc1c(F)cccc1Oc1ncc(Cl)cn1 (stereo not shown)
result: 90

compound: Cc1cccc(Oc2ncc(Cl)cn2)c1OS(=O)(=O)CCCC(F)(F)F
result: 100

Fill in the recorded Post-emergence efficacy against ABUTH in % for this compound, with Abutilon theophrasti (ABUTH) as test system: `CCS(=O)(=O)Oc1ccccc1Oc1ncc(Cl)cn1`
100

Fill in the recorded Post-emergence efficacy against ABUTH in % for this compound, with Abutilon theophrasti (ABUTH) as test system: `O=S(=O)(CCl)Oc1ccccc1Oc1ncc(Cl)cn1`
90

----------
Test system: Pharbitis purpurea (PHBPU)
experiment-description: C. Herbicidal pre-emergence efficacy, PHBPU
Assay type: in vivo
condition-details: 320 g/ha, scored after about 3 weeks
Description: Seeds of monocotyledonous and dicotyledonous weed plants and crop plants were placed in plastic or organic planting pots and covered with soil. […] After about 3 weeks, the efficacy of the preparations was scored visually in comparison with untreated controls as percentages. […]
outcome-measure: Pre-emergence efficacy against PHBPU (%)
Return type: number; implicit unit %.

Worked examples follow.
smiles-data: O=S(=O)(CCCC(F)(F)F)Oc1c(F)cccc1Oc1ncc(F)cn1
target-or-test-system: Pharbitis purpurea (PHBPU)
unit-abbrev: %
result: 100

smiles-data: O=S(=O)(CCCC(F)(F)F)Oc1c(F)cccc1Oc1ncc(Br)cn1
target-or-test-system: Pharbitis purpurea (PHBPU)
unit-abbrev: %
result: 100

smiles-data: O=S(=O)(CCCCl)Oc1ccccc1Oc1ncc(F)cn1
target-or-test-system: Pharbitis purpurea (PHBPU)
unit-abbrev: %
result: 80

Fill in the recorded Pre-emergence efficacy against PHBPU for this molecule, with Pharbitis purpurea (PHBPU) as test system: `CCCCS(=O)(=O)Oc1ccccc1Oc1ncc(Cl)cn1`
80

Fill in the recorded Pre-emergence efficacy against PHBPU for this molecule, with Pharbitis purpurea (PHBPU) as test system: `O=S(=O)(CCCC(F)(F)F)Oc1c(Cl)cccc1Oc1ncc(Cl)cn1`
90

Fill in the recorded Pre-emergence efficacy against PHBPU for this molecule, with Pharbitis purpurea (PHBPU) as test system: `O=S(=O)(CCCCl)Oc1ccccc1Oc1ncc(Cl)cn1`
90

Values compiled from patent US20240174618A1.
